target system: p70S6K human enzyme (Homo sapiens, UniProt P23443, T412E)
Construct: purchased Upstate Chemicon 14-486
Sequence (P23443 1-421 T412E limits assumed): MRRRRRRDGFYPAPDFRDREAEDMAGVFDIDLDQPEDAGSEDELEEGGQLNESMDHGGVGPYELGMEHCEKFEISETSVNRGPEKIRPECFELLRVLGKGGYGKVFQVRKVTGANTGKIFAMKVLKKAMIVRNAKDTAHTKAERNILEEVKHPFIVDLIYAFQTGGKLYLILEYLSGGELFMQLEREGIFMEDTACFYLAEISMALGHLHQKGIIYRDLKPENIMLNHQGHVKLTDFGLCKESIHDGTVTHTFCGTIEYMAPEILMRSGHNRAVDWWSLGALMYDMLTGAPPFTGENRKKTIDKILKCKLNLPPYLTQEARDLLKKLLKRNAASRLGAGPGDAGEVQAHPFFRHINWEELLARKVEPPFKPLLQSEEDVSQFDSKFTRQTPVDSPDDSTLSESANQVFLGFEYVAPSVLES
method description: p70S6K inhibition assay (IMAP FP)
Format: biochemical
measurement conditions: 30 μM ATP; Ki=IC50/(1+([ATP Challenge]/EC50 ATP)); read-out: p70S6K Ki, Avg
measured parameter: pKi
pKi here: minus log base 10 of the concentration, concentration in moles per litre.

smiles: Brc1ccc(CN2CCC[C@@H](Nc3ccc4[nH]ncc4c3)C2)cc1
target system: p70S6K human enzyme (Homo sapiens, UniProt P23443, T412E)
pKi: 6.28
//
smiles: OCCn1ccc2cc(CN3CC[C@@H](Nc4cccc5cnccc45)C3)ccc21
target system: p70S6K human enzyme (Homo sapiens, UniProt P23443, T412E)
pKi: 6.43
//
smiles: Clc1ccc(CN2CCC[C@@H](Nc3ccc4[nH]ncc4c3)C2)cc1
target system: p70S6K human enzyme (Homo sapiens, UniProt P23443, T412E)
pKi: 6.29

Now consider a different compound.
Q) Missing value: pKi, p70S6K human enzyme (Homo sapiens, UniProt P23443, T412E), entry "CSc1ccc(CN2CCC[C@@H](Nc3ccc4[nH]ncc4c3)C2)cc1" . Fill in?
A) 6.26

###

method description: Rat oral pharmacokinetics (plasma)
Type: in vivo
measurement conditions: male, CD Sprague Dawley, 20-30 μmol/kg, mean n = 3
Cut-off 2 µM·h on AUC(0-t), inclusive. At or above means YES; below means NO.

The examples below pair each entry with its known result.
compound: OCCn1ccc2ccc(CN3CCC[C@@H](Nc4ccc5[nH]ncc5c4)C3)cc21 [Compound 1.108]
category: NO
--
compound: OCCOc1cccc(CN2CCC[C@@H](Nc3ccc4[nH]ncc4c3)C2)c1 [Compound 1.092]
category: NO
--
compound: NC(=O)Cn1ccc2ccc(CN3CCC[C@H](Nc4ccc5[nH]ncc5c4)C3)cc21 [Compound 1.107]
category: NO
--
compound: Cc1ccc(CN2CCC[C@H](Nc3cccc4cnccc34)C2)cc1 [Compound 2.045]
category: NO

Q) Is the recorded value of AUC(0-t) equal to or greater than 2 µM·h for this compound? c1cc2cc(CN3CCC[C@@H](Nc4ccc5[nH]ncc5c4)C3)ccc2o1 [Compound 1.131]
A) YES

Q) Is the recorded value of AUC(0-t) equal to or greater than 2 µM·h for this compound? OCCOc1cccc(CN2CC[C@@H](Nc3cccc4cnccc34)C2)c1 [Compound 2.039]
A) NO

###

target system: p70S6K human enzyme (Homo sapiens, UniProt P23443, T412E)
Construct: purchased Upstate Chemicon 14-486
method description: p70S6K inhibition assay (IMAP FP);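 note: kinase reaction run at room temperature, phosphorylated substrate captured on IMAP beads and read as fluorescence polarization in mP, IC50 then converted to Ki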
Type: biochemical
measurement conditions: average Ki; read-out: p70S6K Ki
Below is a list of entries, each paired with its recorded Ki value.
Could you write the number and then its unit?

Solved cases (5 shown):
compound: CCc1ccc(CN2CCC[C@@H](Nc3ccc4[nH]ncc4c3)C2)cc1
target system: p70S6K human enzyme (Homo sapiens, UniProt P23443, T412E)
result: 1.24 µM

compound: Oc1cccc(CN2CCC[C@H](Nc3ccc4[nH]ncc4c3)C2)c1
target system: p70S6K human enzyme (Homo sapiens, UniProt P23443, T412E)
result: 1.88 µM

compound: c1cc2cc(CN3CCC[C@H](Nc4ccc5[nH]ncc5c4)C3)ccc2o1
target system: p70S6K human enzyme (Homo sapiens, UniProt P23443, T412E)
result: 1.27 µM

compound: CS(=O)(=O)Cc1cccc(CN2CCC[C@H](Nc3ccc4[nH]ncc4c3)C2)c1
target system: p70S6K human enzyme (Homo sapiens, UniProt P23443, T412E)
result: 8.69 µM

compound: Cc1ccc(CN2CCC[C@@H](Nc3ccc4[nH]ncc4c3)C2)c(C)c1
target system: p70S6K human enzyme (Homo sapiens, UniProt P23443, T412E)
result: 0.354 µM

Q) Missing value: Ki, p70S6K human enzyme (Homo sapiens, UniProt P23443, T412E), entry "COc1ccc(CN2CC[C@@H](Nc3cccc4cnccc34)C2)cc1" . Fill in?
A) 0.437 µM

Q) Missing value: Ki, p70S6K human enzyme (Homo sapiens, UniProt P23443, T412E), entry "NC(=O)Cn1ccc2cc(CN3CCC[C@@H](Nc4ccc5[nH]ncc5c4)C3)ccc21" . Fill in?
A) 0.387 µM

Q) Missing value: Ki, p70S6K human enzyme (Homo sapiens, UniProt P23443, T412E), entry "Cc1ccc(CN2CCC[C@H](Nc3ccc4[nH]ncc4c3)C2)cc1NS(C)(=O)=O" . Fill in?
A) 2 µM

Q) Missing value: Ki, p70S6K human enzyme (Homo sapiens, UniProt P23443, T412E), entry "OCCN1CCc2ccc(CN3CCC[C@H](Nc4ccc5[nH]ncc5c4)C3)cc21" . Fill in?
A) 3.5 µM

Q) Missing value: Ki, p70S6K human enzyme (Homo sapiens, UniProt P23443, T412E), entry "NC(=O)Cn1ccc2cc(CN3CCC[C@H](Nc4ccc5[nH]ncc5c4)C3)ccc21" . Fill in?
A) 1.63 µM

Q) Missing value: Ki, p70S6K human enzyme (Homo sapiens, UniProt P23443, T412E), entry "CCS(=O)(=O)Nc1cc(CN2CC[C@@H](Nc3cccc4cnccc34)C2)ccc1C" . Fill in?
A) 0.439 µM

Q) Missing value: Ki, p70S6K human enzyme (Homo sapiens, UniProt P23443, T412E), entry "CSc1ccc(CN2CC[C@@H](Nc3cccc4cnccc34)C2)cc1" . Fill in?
A) 0.536 µM

Q) Missing value: Ki, p70S6K human enzyme (Homo sapiens, UniProt P23443, T412E), entry "CS(=O)(=O)Nc1cc(CN2CCC[C@H](Nc3ccc4[nH]ncc4c3)C2)ccc1Cl" . Fill in?
A) 2.1 µM

Q) Missing value: Ki, p70S6K human enzyme (Homo sapiens, UniProt P23443, T412E), entry "c1cc2ccc(CN3CCC[C@H](Nc4ccc5[nH]ncc5c4)C3)cc2[nH]1" . Fill in?
A) 0.436 µM

Q) Missing value: Ki, p70S6K human enzyme (Homo sapiens, UniProt P23443, T412E), entry "OCCn1ccc2cc(CN3CC[C@@H](Nc4cccc5cnccc45)C3)ccc21" . Fill in?
A) 0.368 µM

Q) Missing value: Ki, p70S6K human enzyme (Homo sapiens, UniProt P23443, T412E), entry "c1cc2cc(CN3CCC[C@@H](Nc4ccc5[nH]ncc5c4)C3)ccc2s1" . Fill in?
A) 0.444 µM

Q) Missing value: Ki, p70S6K human enzyme (Homo sapiens, UniProt P23443, T412E), entry "Cc1ccc(CN2CC[C@@H](Nc3cccc4cnccc34)C2)cc1" . Fill in?
A) 0.499 µM

Q) Missing value: Ki, p70S6K human enzyme (Homo sapiens, UniProt P23443, T412E), entry "OCCn1ccc2ccc(CN3CCC[C@H](Nc4ccc5[nH]ncc5c4)C3)cc21" . Fill in?
A) 2.5 µM

Q) Missing value: Ki, p70S6K human enzyme (Homo sapiens, UniProt P23443, T412E), entry "OCc1ccc(CN2CCC[C@H](Nc3ccc4[nH]ncc4c3)C2)cc1" . Fill in?
A) 3.1 µM

Q) Missing value: Ki, p70S6K human enzyme (Homo sapiens, UniProt P23443, T412E), entry "c1ccc2c(CN3CCC[C@@H](Nc4ccc5[nH]ncc5c4)C3)c[nH]c2c1" . Fill in?
A) 0.171 µM

Q) Missing value: Ki, p70S6K human enzyme (Homo sapiens, UniProt P23443, T412E), entry "CCS(=O)(=O)Nc1cccc(CN2CCC[C@@H](Nc3ccc4[nH]ncc4c3)C2)c1" . Fill in?
A) 2.81 µM

Q) Missing value: Ki, p70S6K human enzyme (Homo sapiens, UniProt P23443, T412E), entry "NS(=O)(=O)c1cccc(CN2CCC[C@H](Nc3ccc4[nH]ncc4c3)C2)c1" . Fill in?
A) 1.29 µM

Q) Missing value: Ki, p70S6K human enzyme (Homo sapiens, UniProt P23443, T412E), entry "CSc1cccc(CN2CCC[C@H](Nc3ccc4[nH]ncc4c3)C2)c1" . Fill in?
A) 1.97 µM

Q) Missing value: Ki, p70S6K human enzyme (Homo sapiens, UniProt P23443, T412E), entry "CCS(=O)(=O)Nc1cccc(CN2CCC[C@H](Nc3ccc4[nH]ncc4c3)C2)c1" . Fill in?
A) 3.33 µM

Q) Missing value: Ki, p70S6K human enzyme (Homo sapiens, UniProt P23443, T412E), entry "CC(C)(C)OC(=O)NCc1cccc(CN2CCC[C@H](Nc3ccc4[nH]ncc4c3)C2)c1" . Fill in?
A) 8.76 µM

###

Below is a list of entries, each paired with its recorded Ki value.
target system: ROCK2 (Homo sapiens, UniProt O75116)
Construct: purchased Upstate/Chemicon 14-451
Sequence (O75116 11-552 limits assumed): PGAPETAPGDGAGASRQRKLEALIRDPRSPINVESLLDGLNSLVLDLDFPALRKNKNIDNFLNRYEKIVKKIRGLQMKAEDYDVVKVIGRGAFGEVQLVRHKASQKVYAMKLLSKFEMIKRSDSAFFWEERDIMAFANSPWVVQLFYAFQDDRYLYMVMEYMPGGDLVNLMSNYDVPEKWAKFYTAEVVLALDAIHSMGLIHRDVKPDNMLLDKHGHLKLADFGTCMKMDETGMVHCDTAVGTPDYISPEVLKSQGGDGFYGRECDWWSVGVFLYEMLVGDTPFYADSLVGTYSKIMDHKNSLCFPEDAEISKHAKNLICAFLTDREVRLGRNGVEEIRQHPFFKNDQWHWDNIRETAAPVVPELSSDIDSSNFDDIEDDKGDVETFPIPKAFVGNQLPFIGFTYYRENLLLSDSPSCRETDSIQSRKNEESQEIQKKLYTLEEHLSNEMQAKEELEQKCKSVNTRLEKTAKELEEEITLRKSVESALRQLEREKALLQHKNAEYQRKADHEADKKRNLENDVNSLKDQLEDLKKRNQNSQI
method description: Rho kinase inhibition assay (IMAP fluorescence polarization), ROCK2;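 note: kinase reaction started with 10 µM ATP and run 60 min at room temperature, then phosphorylated substrate captured on IMAP beads for 30 min and fluorescence polarization read in mP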
Type: biochemical
measurement conditions: average Ki; read-out: ROCK2 Ki
# number only, unit nM dropped from output

smiles: Oc1cccc(CN2CC[C@@H](Nc3cccc4cnccc34)C2)c1
target system: ROCK2 (Homo sapiens, UniProt O75116)
Ki (nM): 1.8

Q) Missing value: Ki, ROCK2 (Homo sapiens, UniProt O75116), entry "CCS(=O)(=O)Nc1cccc(CN2CC[C@@H](Nc3cccc4cnccc34)C2)c1" . Fill in?
A) 9.6

Q) Missing value: Ki, ROCK2 (Homo sapiens, UniProt O75116), entry "O=S(=O)(Nc1cccc(CN2CCC[C@H](Nc3ccc4[nH]ncc4c3)C2)c1)N1CCCCC1" . Fill in?
A) 9.9

Q) Missing value: Ki, ROCK2 (Homo sapiens, UniProt O75116), entry "CSc1ccc(CN2CCC[C@@H](Nc3ccc4[nH]ncc4c3)C2)cc1" . Fill in?
A) 4.1

Q) Missing value: Ki, ROCK2 (Homo sapiens, UniProt O75116), entry "OCCOc1cccc(CN2CC[C@@H](Nc3cccc4cnccc34)C2)c1" . Fill in?
A) 6.7

Q) Missing value: Ki, ROCK2 (Homo sapiens, UniProt O75116), entry "OCCN1CCc2ccc(CN3CCC[C@H](Nc4ccc5[nH]ncc5c4)C3)cc21" . Fill in?
A) 12.1

Q) Missing value: Ki, ROCK2 (Homo sapiens, UniProt O75116), entry "c1cc(C2CC2)ccc1CN1CCC[C@@H](Nc2ccc3[nH]ncc3c2)C1" . Fill in?
A) 9.1

Q) Missing value: Ki, ROCK2 (Homo sapiens, UniProt O75116), entry "C#Cc1ccc(CN2CC[C@@H](Nc3cccc4cnccc34)C2)cc1" . Fill in?
A) 5.3
